molecular target: recombinant human CD3ε/δ heterodimer (human) (UniProt P07766); experiment: ELISA, coated CD3ε/δ
Sequence (P07766 23-126, stated change not applied, chain 1 of 2): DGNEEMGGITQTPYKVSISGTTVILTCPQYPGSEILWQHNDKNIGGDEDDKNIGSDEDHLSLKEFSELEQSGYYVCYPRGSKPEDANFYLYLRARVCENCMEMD
Sequence (P04234 22-105, stated change not applied, chain 2 of 2, further chain): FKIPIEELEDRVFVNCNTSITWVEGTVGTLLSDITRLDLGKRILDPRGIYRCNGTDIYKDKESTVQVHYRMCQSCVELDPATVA
MEASURED_ENDPOINT: Absorbance (450 nm)

>>> measurement("B13 (antibody, human IgG1, lambda, L234A L235A, V domains shown) VH: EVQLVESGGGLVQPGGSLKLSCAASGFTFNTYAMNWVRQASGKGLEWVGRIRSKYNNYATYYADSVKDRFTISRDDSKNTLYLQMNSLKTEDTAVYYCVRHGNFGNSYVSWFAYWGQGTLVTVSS VL: QAVVTQEPSLTVSPGGTVTLTCRSSTGAVTTSNYANWVQQKPGQAPRGLIYGTNKRAPWTPARFSGSLLGGKAALTLSGAQPEDEAEYYCALWYSNLWVFGGGTKLTVLG")
0.169
>>> measurement("C11 (antibody, human IgG1, lambda, L234A L235A, V domains shown) VH: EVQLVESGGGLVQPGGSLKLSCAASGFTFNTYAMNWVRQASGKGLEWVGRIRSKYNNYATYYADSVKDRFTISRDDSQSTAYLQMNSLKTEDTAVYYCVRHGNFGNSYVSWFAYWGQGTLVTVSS VL: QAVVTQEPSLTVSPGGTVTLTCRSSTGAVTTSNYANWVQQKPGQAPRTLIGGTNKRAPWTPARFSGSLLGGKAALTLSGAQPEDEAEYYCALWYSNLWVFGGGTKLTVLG")
0.288
>>> measurement("D16 (antibody, human IgG1, lambda, L234A L235A, V domains shown) VH: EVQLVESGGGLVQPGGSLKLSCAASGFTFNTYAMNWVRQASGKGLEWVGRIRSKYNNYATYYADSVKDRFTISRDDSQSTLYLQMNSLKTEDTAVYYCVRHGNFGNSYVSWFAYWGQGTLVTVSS VL: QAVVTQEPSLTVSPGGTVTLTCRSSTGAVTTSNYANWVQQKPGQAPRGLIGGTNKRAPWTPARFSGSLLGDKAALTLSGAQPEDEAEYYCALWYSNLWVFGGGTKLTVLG")
2.65
